Tested on: PA-1
Test: Primary qHTS to identify gynecologic anti-cancer compounds using libraries of approved drugs and bioactive compounds (AID 1345084); also: % is scaled to controls: 0 for no effect and ±100 for the full control effect; nearly all actives have a fitted effect of over 55% in size
Details: Gynecologic cancer cell panel viability, ATPlite luminescence, 48 h; series mostly up to 57.5 µM
Results filed as inconclusive are left out. Active and inactive are the calls of the source. Calls follow the shape of the dose curve; as a rule, active = well fitted cell-killing curve with a large enough effect; inconclusive = small, poorly fitted or top-dose-only effect, or effect the other way; inactive = flat fitted curve, though single readings scatter.
MEASURE: activity change, negative = cytotoxicity

The examples below pair each entry with its known result.
{"columns": ["MOLECULE", "TEST TARGET", "MEASURED VALUE"],
 "data": [
  ["C=CC(C)(O)CC/C=C(\\C)COC1O[C@H](CO)[C@@H](O)[C@H](O)[C@H]1O (some centres not stated)", "PA-1", "inactive"],
  ["COC(=O)[C@H](Cc1cccc(C(=N)N)c1)[C@@H](C)NC(=O)c1ccc(-c2cc[n+]([O-])cc2)cc1", "PA-1", "inactive"],
  ["COC(=O)C[C@H]1C(C)(C)[C@H](OC(=O)C(C)C)C2CC3=C4CC(=O)O[C@@H](c5ccoc5)[C@]4(C)CCC3[C@@]1(C)C2=O (some centres not stated)", "PA-1", "inactive"],
  ["C=C1CC[C@@H]2[C@@](C)(CO[C@@H]3O[C@H](CO)[C@@H](O)[C@H](O)[C@H]3O)[C@H](O)CC[C@@]2(C)[C@@H]1CC/C(C)=C/CO[C@@H]1O[C@H](CO)[C@@H](O)[C@H](O)[C@H]1O", "PA-1", "inactive"],
  ["C/C=C(\\C)C(=O)OC[C@H]1O[C@@H](O[C@H]2[C@@H](O[C@H]3O[C@H](CO)[C@@H](O)[C@H](O)[C@H]3O[C@@H]3O[C@H](CO)[C@@H](O)[C@H](O)[C@H]3O)O[C@H](COC(=O)/C(C)=C/C)[C@@H](O)[C@@H]2O)[C@H](O)[C@@H](O)[C@@H]1O", "PA-1", "4.96% [at 11.6 µM] (inactive)"],
  ["COc1ccc(NC(=O)c2ccc(-c3ccc(C(N)=O)cc3C)cc2)cc1N1CCN(C)CC1", "PA-1", "inactive"]
]}

Short answer for COc1cn(-c2ccc(-n3cccn3)cc2F)nc(-c2ccnn2-c2ccccc2)c1=O : activity change, negative = cytotoxicity was inactive

In plain terms, C=C1CC23CC(=O)C4C(CO)(CO)CCCC4(C)C2CCC1C3 (configuration not stated) has a documented activity change, negative = cytotoxicity of inactive

activity change, negative = cytotoxicity measured on Cc1oc(S(=O)(=O)N2CCCCC2)cc1NC(=O)Nc1ccccc1 = inactive

Input C=C1CC/C=C(/CO)C(=O)C[C@@H]2[C@@H]1C[C@@]2(C)COC(C)=O . Output activity change, negative = cytotoxicity: inactive

Lookup result for Cc1c(Cc2ccc3ccccc3n2)c2cc(F)ccc2n1CC(=O)O ; measured activity change, negative = cytotoxicity: inactive

Sample CC1(C)CCC2(C(=O)O)CCC3(C)C(=CCC4C5(C)CCC(O)C(C)(CO)C5C(O)CC43C)C2C1 (configuration not stated) ; activity change, negative = cytotoxicity observed: inactive

// COc1ccc(/C=C/C(=O)O[C@@H]2[C@@H](O[C@@H]3O[C@H](CO)[C@@H](O)[C@H](O)[C@H]3O)[C@@H](O)[C@H](O[C@H]3C4C=CO[C@@H](O[C@@H]5O[C@H](CO)[C@@H](O)[C@H](O)[C@H]5O)C4[C@@]4(CO)O[C@@H]34)O[C@H]2C)cc1 (some centres not stated) : activity change, negative = cytotoxicity value = -1.37% [at 11.6 µM] (inactive)

get_value(item= CC(C)NC(=O)c1ccc(C#Cc2ccncc2)cn1 , readout=activity change, negative = cytotoxicity) returns inactive
